# assayTarget: T1, PSMA Fab (006 PSMA Fab)
# T1 construct: also called Anti-PSMA Fab; anti-PSMA Fab
# protocolDescription: phage ELISA; biotinylated PSMA Fab on neutravidin plate, clonal phage supernatant, anti-M13 HRP detection;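 also: wells preincubated with PSMA antigen in blocking buffer or with blocking buffer only before clonal phage were added for a short incubation, then bound phage detected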
propertyLabel: Phage binding ELISA signal, Anti-PSMA Fab

Examples with answers:
GHMYCSPLWMCEGF (tested as crude clonal phage supernatant) [Phage-3902] ... 1.06
YVMMCVPQWMCTAK (tested as crude clonal phage supernatant) [Phage-3901] ... 1.06
VMAVCQPEWMCSGM (tested as crude clonal phage supernatant) [Phage-3909] ... 1.05
GNDYCVPAWMCAGF (tested as crude clonal phage supernatant) [Phage-3900] ... 1.06
LGPMCRPNWMCVGL (tested as crude clonal phage supernatant) [Phage-3903] ... 1.06
SDALCRPHWMCAGF (tested as crude clonal phage supernatant) [Phage-3906] ... 1.06
VIPLCRPSWMCAAY (tested as crude clonal phage supernatant) [Phage-3910] ... 1.04
TERMCSPSWMCDGF (tested as crude clonal phage supernatant) [Phage-3908] ... 1.05
ADVLCRPHWMCAGF (tested as crude clonal phage supernatant) [Phage-3905] ... 1.06
SLERCEPPWMCFGF (tested as crude clonal phage supernatant) [Phage-3907] ... 1.06

Measured Phage binding ELISA signal, Anti-PSMA Fab, ESQYCVPRWMCDGF (tested as crude clonal phage supernatant) [Phage-3898] : 1.08

Measured Phage binding ELISA signal, Anti-PSMA Fab, GYHLCIPEWMCSGL (tested as crude clonal phage supernatant) [Phage-3904] : 1.06

Measured Phage binding ELISA signal, Anti-PSMA Fab, FERVCVPAWMCAGF (tested as crude clonal phage supernatant) [Phage-3899] : 1.07

Value source: patent US20260242478A1
